# ASSAYED_TARGET: recombinant human 15-PGDH (Homo sapiens, UniProt P15428)
# Construct: purchased R&D Systems
# ASSAY_INFO: 15-PGDH enzyme inhibition test
# Type: biochemical
# SETTINGS: 4 nM recombinant human 15-PGDH, 30 μM PGE2, 1 mM NAD+, 60 minutes after starting the reaction; read-out: IC50 Value
The following compounds are listed with their measured IC50 values.

COMPOUND	MEASUREMENT_KIND	RESULT
O=C(O)c1ccc(N2CCOc3nc(C(=O)N4CCCCC4)ccc32)cc1	IC50	< 10 nM

// COC(=O)c1ccc(N2CCOc3cc(C(=O)N4CCCCC4)ccc32)cc1 : IC50 value = < 10 nM

// Cn1nc2cc(N3CCCc4cc(C(=O)N5CCC[C@@H](F)C5)cnc43)ccn2c1=O : IC50 value = < 10 nM

// Cn1nc2cc(N3CCCc4cc(S(=O)(=O)C5CCCCC5)cnc43)ccn2c1=O : IC50 value = > 100 nM

// CCn1nc2cc(N3CCCc4cc(C(=O)N5CCN(C)CC5)cnc43)ccn2c1=O : IC50 value = 10 to 100 nM

// CN1Cc2cc(N3CCOc4cc(C(=O)N5CCC(F)(F)CC5)cnc43)cnc2C1=O : IC50 value = < 10 nM

// COCCn1nc2cc(N3CCOc4cc(C(=O)N5CCCCC5)cnc43)ccn2c1=O : IC50 value = < 10 nM

// O=C(O)c1cccc(N2CCCc3cc(C(=O)N4CCCCC4)cnc32)c1 : IC50 value = 10 to 100 nM

// CCN1Cc2cc(N3CCOc4cc(C(=O)N5CCC(F)(F)CC5)cnc43)ccc2C1=O : IC50 value = < 10 nM

// CN1Cc2cc(N3CCOc4cc([S+]([O-])C5CCCCC5)cnc43)ccc2C1=O (centres unmarked) : IC50 value = < 10 nM

// O=C(c1cnc2c(c1)CCCN2c1cc2c(cn1)C(=O)N(CC1COC1)C2)N1CCC(F)(F)CC1 : IC50 value = 10 to 100 nM

// CNC(=O)c1ccc(N2CCOc3cc(C(=O)N4CCC(F)(F)CC4)ccc32)cc1OC : IC50 value = < 10 nM

// CCOCCn1nc2cc(N3CCCc4cc(C(=O)N5CCC[C@H](CF)C5)cnc43)ccn2c1=O : IC50 value = < 10 nM

// CCCCN1Cc2cc(N3CCOc4cc(C(=O)N5CCCCC5)cnc43)ccc2C1=O : IC50 value = < 10 nM

// COCCN1CCN(c2ccn3c(=O)n(C)nc3c2)c2ncc(C(=O)N3CCCCC3)cc21 : IC50 value = < 10 nM

// C[C@H]1COc2cc(C(=O)N3CCCCC3)ccc2N(c2ccc(C(=O)O)cc2)C1 : IC50 value = < 10 nM

// CCn1nc2cc(N3CCCc4cc(C(=O)N5Cc6ccccc6C5)cnc43)ccn2c1=O : IC50 value = < 10 nM

====

# ASSAYED_TARGET: recombinant human 15-PGDH (Homo sapiens, UniProt P15428)
# Construct: purchased R&D Systems
# Sequence (P15428 1-266): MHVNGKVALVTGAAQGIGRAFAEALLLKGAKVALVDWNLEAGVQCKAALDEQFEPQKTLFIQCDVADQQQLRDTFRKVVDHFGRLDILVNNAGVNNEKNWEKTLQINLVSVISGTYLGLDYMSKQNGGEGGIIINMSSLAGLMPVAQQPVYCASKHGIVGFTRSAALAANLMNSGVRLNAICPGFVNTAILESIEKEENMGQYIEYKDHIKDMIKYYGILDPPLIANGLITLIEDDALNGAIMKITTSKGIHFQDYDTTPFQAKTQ
# ASSAY_INFO: 15-PGDH enzyme inhibition test
# Format: biochemical
# SETTINGS: 4 nM recombinant human 15-PGDH, 30 μM PGE2, 1 mM NAD+, 60 minutes after starting the reaction; read-out: IC50 Value
# Protocol: 15-PGDH Enzyme Inhibition Test A test compound and 4 nM recombinant human 15-PGDH (R&D Systems) were added, in 50 mM Tris-HCl (pH 8.0) containing 0.01% TWEEN 20 (Sigma) and 0.01% bovine gamma globulin (Sigma), to a 384-well Flat Bottom Black plate (Corning, 3820), and the resultant was allowed to stand still at room temperature for 12 minutes, and 30 μM PGE2 (Cayman Chemical) and 1 mM NAD+ (Sigma) were added thereto to start the reaction. […]
The following molecules are listed with their measured IC50 values.

See these solved cases before continuing.
MOLECULE	ASSAYED_TARGET	RESULT
CN1Cc2cc(N3CCOc4cc(C(=O)N5CCCCCCC5)cnc43)ccc2C1=O [Example 8-187]	recombinant human 15-PGDH (Homo sapiens, UniProt P15428)	< 0.01 µM
Cn1nc2cc(N3CCOc4cc(C(=O)N5CCOC6(CC6)C5)cnc43)ccn2c1=O [Example 8-49]	recombinant human 15-PGDH (Homo sapiens, UniProt P15428)	< 0.01 µM
C[C@H]1CCCN(C(=O)c2cnc3c(c2)OCCN3c2ccc3c(c2)CN(C)C3=O)C1 [Example 8-198]	recombinant human 15-PGDH (Homo sapiens, UniProt P15428)	< 0.01 µM
CCn1nc2cc(N3CCCc4cc(C(=O)N5CCC[C@@H](CF)C5)cnc43)ccn2c1=O [Example 1-120]	recombinant human 15-PGDH (Homo sapiens, UniProt P15428)	< 0.01 µM
Cn1nc2cc(N3CCOc4cc(C(=O)N5CCCCC5)ccc43)ccn2c1=O [Example 1-25]	recombinant human 15-PGDH (Homo sapiens, UniProt P15428)	< 0.01 µM

// CNC(=O)c1ncc(N2CCCc3cc(C(=O)N4CCC(F)(F)CC4)cnc32)cc1F [Example 1-180] : IC50 value = < 0.01 µM

// Cn1nc2cc(N3CCN(c4ccc(C#N)cc4)c4cc(C(=O)N5CCC(F)(F)CC5)cnc43)ccn2c1=O [Example 30-2] : IC50 value = 0.01 to 0.1 µM

// O=C(O)c1ccc(N2CCOc3cc(C(=O)N4CCCCC4)cnc32)cc1 [Example 4-2] : IC50 value = < 0.01 µM

// O=C(c1cnc2c(c1)OCCN2c1ccc(F)cc1)N1CCCCC1 [Example 1-236] : IC50 value = > 0.1 µM

// O=C(O)c1ccccc1N1CCOc2cc(C(=O)N3CCCCC3)ccc21 [Example 2-27] : IC50 value = > 0.1 µM

// O=C(c1cnc2c(c1)CCCN2c1ccc2c(c1)CN(C1CC1)C2=O)N1CCC(F)(F)CC1 [Example 1-213] : IC50 value = < 0.01 µM

// CCn1nc2cc(N3CCCc4cc(C(=O)N5CCC(C)CC5)cnc43)ccn2c1=O [Example 8-161] : IC50 value = < 0.01 µM

Taken from patent US12577217B2.
